Provide the recorded activity, negative = inhibition for the entries that follow.
# tested-system: Cytochrome P450 1A2 (Homo sapiens) (UniProt P05177)
# Sequence (P05177 whole entry, looked up): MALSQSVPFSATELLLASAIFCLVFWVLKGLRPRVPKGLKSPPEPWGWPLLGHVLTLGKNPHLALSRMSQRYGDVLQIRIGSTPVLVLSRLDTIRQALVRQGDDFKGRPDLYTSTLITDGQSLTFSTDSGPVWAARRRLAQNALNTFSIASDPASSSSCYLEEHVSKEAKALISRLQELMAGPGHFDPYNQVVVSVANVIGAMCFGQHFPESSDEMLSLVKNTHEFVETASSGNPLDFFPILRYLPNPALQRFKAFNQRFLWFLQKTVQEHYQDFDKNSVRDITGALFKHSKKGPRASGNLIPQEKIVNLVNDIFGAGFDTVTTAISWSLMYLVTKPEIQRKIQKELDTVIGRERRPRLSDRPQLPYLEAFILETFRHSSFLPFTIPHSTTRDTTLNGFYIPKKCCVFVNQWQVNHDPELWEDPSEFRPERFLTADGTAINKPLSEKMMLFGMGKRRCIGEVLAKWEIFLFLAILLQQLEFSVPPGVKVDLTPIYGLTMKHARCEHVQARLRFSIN
# test: Cytochrome panel assay with activity outcomes; also: % is scaled to controls: 0 for no effect and ±100 for the full control effect
# stated-conditions: recombinant CYP, pro-luciferin dealkylation, luminescence, p450-cyp1a2; series mostly up to 57.1 µM
# Experimental: The P450 gene superfamily is involved in the metabolism and clearance of xenobiotics. This assay used various human CYP P450 isozymes to measure the dealkylation of various pro-luciferin substrates to luciferin. The luciferin is then measured by luminescence after the addition of a luciferase detection reagent. […] Inhibitors and some substrates limit the production of luciferin, and decrease measured luminescence. […] 8, Detection, 1 sec, ViewLux luminescent read […]
Out of some 16,000 compounds screened, about 5,700 (36%) were called active. About 24% were inconclusive and are not listed. The list shows a part of the results.

activity, negative = inhibition reported for this molecule CCCNC(=O)OC[C@@H]1O[C@H](CCO/N=C(\C)CCN2CCCCc3nc(C)c(C)cc32)C=C[C@@H]1Oc1ccc(OC)cc1 : 3.81% [at 11.4 µM] (inactive)

activity, negative = inhibition reported for this molecule CC(C)=CCC/C(C)=C/CO/N=C1/C[C@@H](O)[C@@H](O)[C@@H]2[C@H]3C(=O)N(c4ccc(F)cc4F)C(=O)[C@@H]3CC[C@@H]12 : 8.54% [at 11.4 µM] (inactive)

activity, negative = inhibition reported for this molecule O[C@H](COc1ccccc1)CN1CCCCC1 : -3.85% [at 11.4 µM] (inactive)

activity, negative = inhibition reported for this molecule N=C(N)SCCc1ccncc1 : -17.8% [at 2.29 µM] (inactive)

activity, negative = inhibition reported for this molecule S=c1nc[nH]c2c1ncn2Cc1ccco1 : -16.3% [at 11.4 µM] (inactive)

activity, negative = inhibition reported for this molecule COc1ccc(CSC2=C(C#N)C(=O)NC3(CCCCC3)S2)cc1 : -5.77% [at 2.29 µM] (inactive)

activity, negative = inhibition reported for this molecule CN(C(=O)c1ccncc1)c1ccccc1 : -13.8% [at 11.4 µM] (inactive)

activity, negative = inhibition reported for this molecule Br/C(=N\Nc1nn[nH]n1)c1ccncc1 : -5.24% [at 11.4 µM] (inactive)

activity, negative = inhibition reported for this molecule C/C(CCN1CCc2nc(-c3ccccc3)c(-c3ccccc3)cc2C1)=N\O[C@@H](C)CN1CCCc2nc(C)c(C)cc21 : -2.64% [at 11.4 µM] (inactive)

activity, negative = inhibition reported for this molecule CC(C)(C)NC[C@@H](O)c1ccc(O)c(CO)n1 : 10.1% [at 2.29 µM] (inactive)

activity, negative = inhibition reported for this molecule O=C(O)c1ccc(S(=O)(=O)N=Nc2c(O)[nH]c3ccccc23)cc1 : -11.7% [at 11.4 µM] (inactive)

activity, negative = inhibition reported for this molecule CCN1C(=O)[C@H]2[C@H]3[C@H](O)[C@H](O)C/C(=N/OC[C@@H](C)[C@H](OCc4ccccc4)C(C)C)[C@@H]3CC[C@@H]2C1=O : -11.8% [at 11.4 µM] (inactive)

activity, negative = inhibition reported for this molecule CC(C)CO/N=C1/C[C@@H](O)[C@@H](O)[C@@H]2[C@H]3C(=O)N(c4ccc(F)cc4F)C(=O)[C@@H]3CC[C@H]12 : 0.352% [at 11.4 µM] (inactive)

activity, negative = inhibition reported for this molecule CO[C@H]1COC(=O)[C@H]2CCCN2C(=O)[C@@H](C)COC(=O)C/C=C\[C@@H]1C : -1.05% [at 11.4 µM] (inactive)

activity, negative = inhibition reported for this molecule CC(C)[C@H](NC(=O)OC(C)(C)C)[C@@H](O)CC(=O)C(C)(C)C : 0.674% [at 11.4 µM] (inactive)

activity, negative = inhibition reported for this molecule O=CN[C@@H](Cc1cnc[nH]1)C(=O)O : -8.82% [at 11.4 µM] (inactive)

activity, negative = inhibition reported for this molecule O=C1OCCC=C1[C@@H](O)CCc1ccccc1 : -0.0227% [at 11.4 µM] (inactive)

activity, negative = inhibition reported for this molecule [Cu].[O-]/N=C1/C(=[OH+])Nc2ccccc21.[O-]Nc1c(O)[nH]c2ccccc12 : -20.1% [at 2.29 µM] (inactive)

activity, negative = inhibition reported for this molecule CO/N=C\c1ccc(C(=O)N2[C@H](c3ccc(C)cc3)[C@@H](C)CC[C@H]2C(=O)OC)cc1 : -13.4% [at 11.4 µM] (inactive)

activity, negative = inhibition reported for this molecule C[C@@H](c1ccccc1)N1C(=O)[C@H]2[C@H]3[C@H](O)[C@H](O)C/C(=N/OCc4ccccc4)[C@H]3CC[C@@H]2C1=O : -3.77% [at 11.4 µM] (inactive)
